Measured Ki (5-hydroxytryptamine receptor 1D (Homo sapiens, UniProt P28221))
Numbers only, in nM.

CN1CC(C(=O)N[C@]2(C)O[C@@]3(O)C4CCCN4C(=O)[C@H](Cc4ccccc4)N3C2=O)CC2c3cccc4[nH]cc(c34)CC21 (some centres not stated) :: 0.13
CC(C)(C)NCC(O)COc1cccc2[nH]c(C#N)cc12 (configuration not stated) [NSC_155346] :: 85
Clc1cccc(N2CCNCC2)c1 [mCPP] :: 210

Batch of 4 compounds: report Ki for each.
1. O=C(CCCN1CCC2(CC1)C(=O)NCN2c1ccccc1)c1ccc(F)cc1
2. CN1C[C@H](CNC(=O)OCc2ccccc2)C[C@@H]2c3cccc4c3c(cn4C)C[C@H]21 [METERGOLINE]
3. CN1C[C@@H](NS(=O)(=O)N(C)C)C[C@@H]2c3cccc4c3c(cn4C)C[C@H]21 [MESULERGINE]
4. CSc1ccc2c(c1)C(N1CCN(C)CC1)Cc1ccccc1S2 (configuration not stated)

[3100, 0.61, 1700, 5.8]
